molecular target: Pan-species-specific antigen Plasmodium Lactate DeHydrogenase (Pan-PLDH) protein; assay: indirect ELISA, recombinant MA protein coated 1 ug/ml, antibody 0 ng/ml (blank)
metric: OD value at 450 nm (refer to 630 nm) (OD)
Hi! Could you send only the number? It should be in OD, unit omitted.

# query: OD value at 450 nm (refer to 630 nm) of entry Mutation 4 (antibody, mouse IgG2b, kappa, V domains shown) VH: QVQLQQPGAELVRPGASVKLSCKASGSSFTNYFMNWVKQRPGQGLEWIGMIHPSESETRINQKFKDKATLTVDKSSSTAYMQLSSLTAEDSAVYYCAKSGDFYTSYWDYWGQGTTLTVSS VL: DIQLTQSPASLSASVGETVTITCRGSGNLHNYIAWYQQKQGKSPQLLVYNARTIADGVPSRFSGSGSGTQYSLKINSLQPEDFGSYYCQSFWSTYTFGGGTKLEIKR
0.066

# query: OD value at 450 nm (refer to 630 nm) of entry anti-Pan-PLDH 9G7 monoclonal antibody (antibody, mouse IgG2b, kappa, V domains shown) VH: QVQLQQPGAELVRPGASVKLSCKASGSSFTNYFMNWVKQRPGQGLEWIGMINPSESETRINQKFKDKATLTVDKSSSTAYMQLSSLTAEDSAVYYCAKSGDFYTSYWDYWGQGTTLTVSS VL: DIQLTQSPASLSASVGETVTITCRGSGNLHNYIAWYQQKQGKSPQLLVYNARTIADGVPSRFSGSGSGTQYSLKINSLQPEDFGSYYCQSFWSSYTFGGGTKLEIKR
0.072

# query: OD value at 450 nm (refer to 630 nm) of entry Mutation 3 (antibody, mouse IgG2b, kappa, V domains shown) VH: QVQLQQPGAELVRPGASVKLSCKASGSSFTNYWMNWVKQRPGQGLEWIGMINPSESETRINQKFKDKATLTVDKSSSTAYMQLSSLTAEDSAVYYCAKSGDFYTSYFDYWGQGTTLTVSS VL: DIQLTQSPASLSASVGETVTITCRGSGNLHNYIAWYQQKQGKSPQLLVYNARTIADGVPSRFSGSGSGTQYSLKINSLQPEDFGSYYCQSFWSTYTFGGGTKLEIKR
0.053

# query: OD value at 450 nm (refer to 630 nm) of entry Mutation 2 (antibody, mouse IgG2b, kappa, V domains shown) VH: QVQLQQPGAELVRPGASVKLSCKASGSSFTNYFMNWVKQRPGQGLEWIGMIHPSESETRINQKFKDKATLTVDKSSSTAYMQLSSLTAEDSAVYYCAKSGDFYTSYFDYWGQGTTLTVSS VL: DIQLTQSPASLSASVGETVTITCRGSGNLHNYLAWYQQKQGKSPQLLVYNARTIADGVPSRFSGSGSGTQYSLKINSLQPEDFGSYYCQSFWSSYTFGGGTKLEIKR
0.072

# query: OD value at 450 nm (refer to 630 nm) of entry Mutation 1 (antibody, mouse IgG2b, kappa, V domains shown) VH: QVQLQQPGAELVRPGASVKLSCKASGSSFTNYWMNWVKQRPGQGLEWIGMIHPSESETRINQKFKDKATLTVDKSSSTAYMQLSSLTAEDSAVYYCAKSGDFYTSYFDYWGQGTTLTVSS VL: DIQLTQSPASLSASVGETVTITCRGSGNLHNYLAWYQQKQGKSPQLLVYNARTIADGVPSRFSGSGSGTQYSLKINSLQPEDFGSYYCQSFWSTYTFGGGTKLEIKR
0.06
